Origin of the recorded values: patent US20240376170A1

TESTED TARGET: T1, recombinant human IL-2 receptor beta containing a His-tag and Avi-tag (human, UniProt P14784 27-239)
T1 construct: Bought; attached to the SAX2 biosensor; also called CD122; IL-2R β; not shown: His-tag and Avi-tag
T1 sequence (looked up): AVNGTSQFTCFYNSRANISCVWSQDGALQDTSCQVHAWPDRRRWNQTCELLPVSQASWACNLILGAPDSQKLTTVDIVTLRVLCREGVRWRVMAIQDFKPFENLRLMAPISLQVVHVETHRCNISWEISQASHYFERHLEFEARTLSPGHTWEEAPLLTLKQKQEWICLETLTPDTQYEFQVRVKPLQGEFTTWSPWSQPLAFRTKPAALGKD
ASSAY NAME: BLI (Octet R8), receptor on SAX2 sensor
Bridges are numbered along the chain shown (N, C = ends). Primed or numbered codes have the meaning given here. [ ]: non-standard residue; d: D form. Ygp = O-(8x polyethylene glycol-amino)-tyrosine (Tyr, amino-capped PEG8); Yn3 = O-(9x polyethylene glycol-azido)-tyrosine (Tyr, azide-capped PEG9); Ygp″ = O-(8x polyethylene glycol-amino)-tyrosine; Yn3″ = O-(9x polyethylene glycol-azido)-tyrosine; Ygp(3) = O-(PEG8-amino)-tyrosine; Yn3(3) = O-(PEG9-azido)-tyrosine; PEG4′ = 4x polyethylene glycol; PEG9′ = 9x polyethylene glycol; hSer = N[C@@H](CCO)C(=O)O; Nle = CCCC[C@H](N)C(=O)O
PARAMETER MEASURED: koff
Units required after the number.

*Q* Dear colleague, please send me the reported koff for CMP-138 (ligand, bridge (positions not given here); not fully specified (bridges); numbers in words are those of the source; also: Cys58-Cys105 disulfide expected from oxidative folding) [PEG4′]SGGPGPAGMKGLPGS[PEG4′]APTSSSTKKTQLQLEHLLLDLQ[Nle]ILNGIENYKNPKLTR[Nle]L[hSer][Yn3(3)]KF[Ygp(3)][Nle]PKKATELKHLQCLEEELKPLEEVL[hSer]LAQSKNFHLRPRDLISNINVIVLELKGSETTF[hSer]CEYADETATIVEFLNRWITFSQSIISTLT when you can.
*A* 0.0105 s⁻¹

*Q* Retrieve koff measured for CMP-136 (ligand, bridge N-37; not fully specified (bridges)) [PEG9′]PLGLAG[PEG9′]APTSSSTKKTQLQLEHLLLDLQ[Nle]ILNGIENYKNPKLTR[Nle]L[hSer][Yn3]KF[Ygp][Nle]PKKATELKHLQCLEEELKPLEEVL[hSer]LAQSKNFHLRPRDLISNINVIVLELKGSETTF[hSer]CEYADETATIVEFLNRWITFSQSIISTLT and print it.
*A* 0.00767 s⁻¹

*Q* Return koff for the following binder: CMP-166 (ligand, bridge N-23; not fully specified (bridges); ends not checked; also: sequence of the cleavable peptide in the bridge not given here) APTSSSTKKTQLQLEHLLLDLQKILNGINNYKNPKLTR[Nle]L[hSer][Yn3]KF[Ygp][Nle]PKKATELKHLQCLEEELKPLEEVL[hSer]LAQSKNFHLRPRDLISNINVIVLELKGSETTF[hSer]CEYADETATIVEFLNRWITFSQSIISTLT
*A* 0.613 s⁻¹

*Q* Please indicate koff recorded for CMP-168, MMP2 cleaved (ligand, ends and bridges not checked; also: MMP2 cleaved, ring opened, cut site and remnants not given here, Tested after MMP2 treatment) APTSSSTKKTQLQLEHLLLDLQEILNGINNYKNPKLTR[Nle]L[hSer][Yn3″]KF[Ygp″][Nle]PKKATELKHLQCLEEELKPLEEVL[hSer]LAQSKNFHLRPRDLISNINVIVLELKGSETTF[hSer]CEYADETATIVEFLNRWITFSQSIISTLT
*A* 1.08 s⁻¹
